Consider the following compounds and their measured CC50 at 7 days readings.
# ASSAY EXPLANATION: In vitro cytotoxicity, MTT cell viability assay in HepG2 cells
# Type: cell-based
# SETUP CONDITIONS: human, Cytotoxicity CC50

# COMPOUND, CC50 at 7 days
data = [
    ("O=C(Nc1ccc(F)c(F)c1)c1ccc(F)c(C(F)(F)C(=O)N2[C@@H]3CC[C@H]2C[C@H](O)C3)c1 [Example 199]", "5 to 30 µM"),
    ("Cc1cc(NC(=O)c2ccc(F)c(C(F)(F)C(=O)N3[C@@H]4CC[C@H]3COC4)c2)ccc1F [Example 213]", "> 30 µM"),
    ("Cc1cc(NC(=O)c2ccc(Cl)c(C(F)(F)C(=O)N3CCC(O)CC3)c2)ccc1F [Example 17]", "5 to 30 µM"),
    ("O=C(Nc1ccc(Cl)cc1)c1ccc(Cl)c(C(F)(F)C(=O)N2CCC(O)CC2)c1 [Example 39]", "5 to 30 µM"),
    ("Cc1cc(NC(=O)c2ccc(Cl)c(C(F)(F)C(=O)N3CC=CCC3)c2)ccc1F [Example 74]", "5 to 30 µM"),
    ("CN(C(=O)c1ccc(Cl)c(C(F)(F)C(=O)N2CCC(O)CC2)c1)c1ccc(Cl)cc1 [Example 40]", "> 30 µM"),
    ("Cc1cc(NC(=O)c2ccc(F)c(C(F)(F)C(=O)N3CCc4[nH]nnc4C3)c2)ccc1F [Example 270]", "5 to 30 µM"),
    ("Cc1cc(NC(=O)c2ccc(C(F)(F)C(=O)N3CCC(O)CC3)s2)ccc1F [Example 63]", "5 to 30 µM"),
]
